The reported numbers originate from PubChem BioAssay.

- tgt: Short transient receptor potential channel 4 (Mus musculus) (UniProt Q9QUQ5)
- Sequence (Q9QUQ5 whole entry, looked up): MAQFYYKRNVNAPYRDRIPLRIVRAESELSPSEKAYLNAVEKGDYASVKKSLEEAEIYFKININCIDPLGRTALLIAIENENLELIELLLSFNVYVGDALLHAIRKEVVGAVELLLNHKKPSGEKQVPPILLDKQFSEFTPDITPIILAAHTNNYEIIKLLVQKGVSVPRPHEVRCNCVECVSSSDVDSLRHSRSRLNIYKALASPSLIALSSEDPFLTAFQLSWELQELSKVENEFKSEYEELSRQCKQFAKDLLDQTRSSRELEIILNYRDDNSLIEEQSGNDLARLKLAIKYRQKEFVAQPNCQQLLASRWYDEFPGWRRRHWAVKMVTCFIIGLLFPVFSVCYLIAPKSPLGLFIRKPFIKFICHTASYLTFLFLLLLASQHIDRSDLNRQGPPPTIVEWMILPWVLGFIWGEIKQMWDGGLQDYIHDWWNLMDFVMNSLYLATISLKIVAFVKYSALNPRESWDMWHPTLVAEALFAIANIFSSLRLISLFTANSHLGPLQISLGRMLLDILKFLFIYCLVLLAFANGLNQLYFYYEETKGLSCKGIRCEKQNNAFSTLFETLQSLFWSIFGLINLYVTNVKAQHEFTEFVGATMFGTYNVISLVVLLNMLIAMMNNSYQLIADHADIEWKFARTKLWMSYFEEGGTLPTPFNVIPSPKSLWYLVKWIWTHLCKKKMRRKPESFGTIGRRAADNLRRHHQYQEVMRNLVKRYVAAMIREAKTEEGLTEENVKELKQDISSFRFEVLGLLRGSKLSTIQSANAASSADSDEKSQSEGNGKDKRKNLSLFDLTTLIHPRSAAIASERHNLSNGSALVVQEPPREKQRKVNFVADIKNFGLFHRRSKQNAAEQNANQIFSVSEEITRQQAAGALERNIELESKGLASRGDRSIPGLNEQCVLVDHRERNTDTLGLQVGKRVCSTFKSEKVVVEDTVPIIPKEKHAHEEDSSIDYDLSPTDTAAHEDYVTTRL
- protocol summary: blockers of DAMGO-evoked TRPC4 calcium flux – cell-based, Fluo4, HEK293 TRPC4beta/mu-opioid, confirmation (AID 2636)
- protocol conditions: at 10 µM
The source made the active and inactive calls.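 Rule for the calls: active = calcium signal cut by more than 3 SD below the full-agonist control yet still positive, in both repeats and the earlier primary screen; inactive = the rest.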
Classes used: yes (1) for active, no (0) for inactive

compound | class assignment
Cn1c(SCCOc2ccccc2F)nc2ccccc2c1=O | no (0)
O=C(O)c1ccc(-c2ccc(/C=N/Nc3ccc([N+](=O)[O-])cc3)o2)cc1 | no (0)
CCOC(=O)C1=NN(c2ccccc2C)C2=NC(C)=C(C(=O)OC)C(c3cccc(OC)c3)N12 (stereo not drawn) | yes (1)
Cc1cc2[nH]c3ccccc3c2c(C)n1 | yes (1)
Cc1ccc(-c2csc(NC(=O)C3CC=CCC3C(=O)O)c2C(=O)OC(C)C)cc1 (stereo not drawn) | no (0)
CCN(CC)c1ncnc2sc3c(c12)CCC3 | no (0)
CCCCN(CC)CCCNC(=O)c1cc2cc3ccc(C)cc3nc2o1 | no (0)
CC1Oc2ccccc2C=C1/C=N/Nc1ccc(C(=O)O)cc1 (stereo not drawn) | yes (1)
Cc1cc(C(=O)N/N=C\c2cc(C(C)(C)C)ccc2O)n[nH]1 | yes (1)
CCCCNCc1cc(Cl)c(OCCC)c(OCC)c1 | yes (1)
N=c1oc2ccc(Cl)cc2cc1C(=O)NC1CCCCCC1 | no (0)
Cc1[nH]c2ccccc2c1C(=O)CN1C(=O)NC(C)(c2ccc(Cl)cc2Cl)C1=O (stereo not drawn) | no (0)
c1ccc(C2(CN3CCNC[C@H]3Cc3cccc4ccccc34)CC2)cc1 | no (0)
NN=C1c2cc([N+](=O)[O-])ccc2-c2ccc([N+](=O)[O-])cc21 | no (0)
O=[N+]([O-])c1ccc(CN2CCN(Cc3c[nH]c4ccccc34)CC2)cc1 | yes (1)
Cc1ccc(S(=O)(=O)c2c(C(=O)c3ccccc3)cnc3cc4c(cc23)OCCO4)cc1 | no (0)
Cc1cc(C)c2[nH]c(=O)c(CN(Cc3cccnc3)C(=S)NCCCN(C)C)cc2c1 | yes (1)
C=CCNC(=S)N1CCN(C2CCCCC2)CC1 | no (0)
CCn1c(CN2CCN(Cc3ccc(C)cc3)C(CCO)C2)nc2ccccc21 (stereo not drawn) | no (0)
CC(C)(C)c1cc(O)c(C(C)(C)C)cc1O | no (0)
COc1ccc2nc(SCCN(C)C)[nH]c2c1 | no (0)
COc1ccccc1C(=O)NNC1=C(C(=O)C(F)(F)F)CCC1 | no (0)
CCOc1ccc(OCC(O)CNC2CCN(Cc3ccccc3)CC2)cc1 (stereo not drawn) | yes (1)
